Origin of measurements: ChEMBL document CHEMBL1131077

# test.name: Dose which induced 50% of mice to fall from the rotarod
# Type: ADME
# assay.context: mouse, in vivo
Each entry below lists one item and its recorded TD50 value.

| structure.string | units.symbol | TD50 |
| --- | --- | --- |
| COc1cc2c(cc1OC)C(c1ccccc1)=NN=C(S)C2 | µmol/kg | 98.9 |
| COc1cc2c(cc1OC)C(c1ccc(N)cc1)=NN=C(S)C2 | µmol/kg | 42.6 |
